Every entry's value here was drawn from ChEMBL document CHEMBL1201862.

- System: OVCAR-5
- ASSAY_TEXT: NCI tumour cell line growth inhibition, 48 h
Activity calls are given as the source filed them. No stated cut-off is given here; in the data, active = GI50 up to about 1.1 µM and inactive = higher.
PROPERTY_NAME: GI50

* OC(CC(O)(C(F)(F)F)C(F)(F)F)c1ccc(C(O)CC(O)(C(F)(F)F)C(F)(F)F)cc1 (stereo not given) | 17.1 µM (inactive)
* CC(C)/C(Cl)=N\OC(=O)Nc1ccc(S(N)(=O)=O)cc1 | 18.3 µM (inactive)

Input: GI50 lookup needed for `CN(C(=O)Cc1cc(Cl)c(Cl)cc1NC(=O)CN)[C@H]1CCCC[C@@H]1N1CCCC1` , thanks.
Output: > 100 µM (inactive)

Input: Fill in the blank: the reported GI50 of `N#Cc1c2ccc([N+](=O)[O-])cc2c(=O)n2c1sc1ccc(C(F)(F)F)cc12` is ____.
Output: > 100 µM (inactive)

Input: # get_value(readout='GI50', item= `COc1c(Cl)c(Cl)c(OC)c2c1C(=O)C=CC2=O` )
Output: 35.5 µM (inactive)
